target: Recombinant human renin (Homo sapiens); construct: isolate the active form (residues 67-406); made in house; host or cells: FreeStyle 293-F cells (transient expression of pcDNA3.1(+)/hREN); assay: In vitro enzymatic activity assay of renin inhibitors (fluorogenic peptide substrate); assay type: biochemical
Sequence (P00797 67-406): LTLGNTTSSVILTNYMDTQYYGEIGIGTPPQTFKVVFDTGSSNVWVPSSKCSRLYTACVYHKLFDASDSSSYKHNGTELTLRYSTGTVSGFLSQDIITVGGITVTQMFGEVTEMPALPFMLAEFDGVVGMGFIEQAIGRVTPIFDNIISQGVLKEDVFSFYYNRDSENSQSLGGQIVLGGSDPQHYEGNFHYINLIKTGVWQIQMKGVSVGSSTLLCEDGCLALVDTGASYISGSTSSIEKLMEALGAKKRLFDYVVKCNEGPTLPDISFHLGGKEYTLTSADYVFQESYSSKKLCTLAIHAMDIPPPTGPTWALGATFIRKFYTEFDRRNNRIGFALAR
measured attribute: IC50

Which IC50 is listed for COCCCn1c([C@@H]2CCCN(C(=O)[C@@H]3CN(C(=O)Oc4cccc(C(F)(F)F)c4)C[C@H]3N)C2)nc2ccccc21 ?
> 1000 nM

Continuing:
Which IC50 is listed for COCCCn1c([C@@H]2CCCN(C(=O)C[C@H](N)CNC(=O)Nc3ccccc3Cl)C2)nc2ccccc21 ?
< 100 nM

Which IC50 is listed for COCCCn1c([C@@H]2CCCN(C(=O)[C@@H]3CN(C(=O)Oc4ccc(Cl)cc4)C[C@H]3N)C2)nc2ccccc21 ?
> 1000 nM

Which IC50 is listed for COCCCn1c([C@@H]2CCCN(C(=O)[C@@H]3CN(C(=O)Oc4ccccc4Cl)C[C@H]3N)C2)nc2ccccc21 ?
> 1000 nM
